Origin of values: PubChem BioAssay (NCI)

Tested on: OVCAR-8 ovarian
Test: NCI tumour cell line growth inhibition, 48 h
TGI: recorded values

{"columns": ["compound", "result"],
 "data": [
  ["CC(C)(C)OC(=O)NCC(C#N)CNC(=O)OC(C)(C)C", "> 100 µM"],
  ["Cc1cc(O)c2c(c1)C(O)(c1ccc3c(c1O)C(=O)c1c(O)cc(C)cc1C3(O)C1OC(CO)C(O)C(O)C1O)c1cccc(O)c1C2=O (stereo not given)", "34 µM"],
  ["Cc1cn(CCCCCOC(=O)NC(CCCNC(N)=O)C(=O)O)c(=O)[nH]c1=O (stereo not given)", "> 100 µM"],
  ["CC[N+]1(C)CCC(O)(c2ccc(C)cc2)C(C(=O)c2ccc(C)cc2)C1 (stereo not given)", "> 100 µM"],
  ["CCCO/N=[N+](\\[O-])N(CC)CC", "> 100 µM"]
]}

Query: Write down the reported TGI of `COC(=O)C1=C(C(=O)OC)SC(=C2SC3=C(SC(=C4SCCS4)S3)S2)S1` , test system: OVCAR-8 ovarian.
Result: > 100 µM

Query: Write down the reported TGI of CC1(C)O[C@H]2OC3CCC(=O)CC3(O)[C@H]2O1 (stereo not given in full) , test system: OVCAR-8 ovarian.
Result: > 100 µM

Query: Write down the reported TGI of O=C(CC(C(=O)c1cccs1)c1ccc2c(c1)OCO2)c1ccc(Br)cc1 (stereo not given) , test system: OVCAR-8 ovarian.
Result: > 100 µM

Query: Write down the reported TGI of `CC1(C)N=C(N)N=C(N)N1c1cccc(OCc2cccc(N)c2)c1` , test system: OVCAR-8 ovarian.
Result: > 100 µM

Query: Write down the reported TGI of `Clc1ccccc1NN(Cc1ccccn1)c1ccccc1Cl` , test system: OVCAR-8 ovarian.
Result: 39.9 µM

Query: Write down the reported TGI of `Cc1cccc(NS(=O)(=O)c2ccc(N=Nc3c(O)c(C(=O)O)cc4ccccc34)cc2)n1` , test system: OVCAR-8 ovarian.
Result: > 100 µM

Query: Write down the reported TGI of `CNC(=S)NNc1ncnc2c1c(-c1ccc(Cl)cc1)cn2-c1ccc(C)cc1` , test system: OVCAR-8 ovarian.
Result: 31.5 µM

Query: Write down the reported TGI of `Cc1nc2c(n1CC(C)(C)C)C(=O)c1ccccc1C2=O` , test system: OVCAR-8 ovarian.
Result: > 100 µM

Query: Write down the reported TGI of `Cc1cccc(NC(=O)c2sc3nc4c(cc3c2N)CCCC4)c1C` , test system: OVCAR-8 ovarian.
Result: > 100 µM

Query: Write down the reported TGI of `Cn1nc2c(c1N)Cc1c(nn(C)c1N)-c1ccccc1-2` , test system: OVCAR-8 ovarian.
Result: > 100 µM
